# testSystem: T1, human TIGIT on cells (human, UniProt Q495A1 22-141)
# T1 construct: also called Expi293 human TIGIT over-expressing cells
# T1 sequence: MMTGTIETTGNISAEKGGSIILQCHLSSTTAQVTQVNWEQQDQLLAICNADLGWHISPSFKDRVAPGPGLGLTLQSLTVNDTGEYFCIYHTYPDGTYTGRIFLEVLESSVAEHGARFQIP
# protocolText: flow cytometry of fab; MFI on human TIGIT over-expressing Expi293 / MFI on parental Expi293
In this section we review reported MFIr (OE/Par) hTIGIT values for a set of binders.
Answer as a number with no unit attached.

{"columns": ["binder", "quantitativeReadout"],
 "data": [
  ["CPA.9.018 (Fab, V domains shown, phage fab, campaign 1; fab form of CPA.9.018-H4; also called CPA.9.018 (fab)) VH: QVQLVESGGGLVQPGGSLRLSCAASGFTFSSYGMHWVRQAPGKGLEWVAFIRYDGSNKYYADSVKGRFTISRDNSKNTLYLQMNSLRAEDTAVYYCAKEMLVQDYYYMDVWGQGTTVTVSS VL: DVVMTQSPLSLPVSPGEPASISCRSSQNLLHRNGINYLNWYLQKPGQSPQLLIYWGSNRASGVPDRFSGSGSGTDFTLKISRVEAEDVGVYYCMQGLQIPPTFGQGTKVDIK", 16]
]}

Entry CPA.9.101 (fab) (Fab, V domains shown, variant of CPA.9.059 screened as fab) VH: EVQLVETGGGLIQPGGSLRLSCAASGFTVSSNYMSWVRQAPGKGLEWVSVIYSGGSTYYADSVKGRFTISRDNSKNTLYLQMNSLRAEDTAVYYCARGAPLFGQYPYWGQGTLVTVSS VL: DIQMTQSPSSLSASVGDRVTITCRASHAIASLFSWYQQKPGKAPKLLIYAASTLQTGVPSRFSGSASGTEFTLTISSLQPEDFATYYCLQLDSFPTWTFGQGTKVEIK : reported MFIr (OE/Par) hTIGIT = ?
130

Entry CPA.9.093 (fab) (Fab, V domains shown, variant of CPA.9.027 screened as fab) VH: EVQLVETGGGLIQPGRSLRLSCAASGFTFSSYAMHWVRQAPGKGLEWVAVISYEGDRKYYADSVKGRFTISRDNSKNTLYLQMNSLRAEDTAVYYCARDPLPLHYYGMDVWGQGTTVTVSS VL: QSALTQPRSASGNPGQRVTISCSGSSSNMGRRPVNWYQQIPGTAPKLLIYSQNQRPSGVPDRFSGSQSGTSASLTISGLQSEDEAEYFCATWDDSTPHGVFGGGTKLAVL : reported MFIr (OE/Par) hTIGIT = ?
80

Entry CPA.9.103 (fab) (Fab, V domains shown, variant of CPA.9.059 screened as fab) VH: EVQLVETGGGLIQPGGSLRLSCAASGFTVSSNYMSWVRQAPGKGLEWVSVIYSGGSTYYADSVKGRFTISRDNSKNTLYLQMNSLRAEDTAVYYCARGARPNGQYPYWGQGTLVTVSS VL: DIQLTQSPSFLSASVGDRVTITCRASHGIKSLFSWYQQKPGKAPKLLIYAASTLQTGVPSRFSGSASGTEFTLTISSLQPEDFATYYCLQLDSFPTWTFGQGTKVEIK : reported MFIr (OE/Par) hTIGIT = ?
95
